Data credit: ChEMBL document CHEMBL4622945

Tested on: SK-BR-3
ASSAY INFO: Antiproliferative activity against human SKBR3 cells assessed as reduction in cell growth by SRB assay
Format: functional, cell-based
Square brackets hold non-standard residues; d marks the D form. Peptide text beside a SMILES is read from it. * marks the point of attachment. NH((S)CH(Me)CH2NHC2H4OH) = C[C@@H](CNCCO)N*; Alaψ(CH2NMeCH2CH2OH) = C[C@@H](CN(C)CCO)N*; Gly(octyl) = CCCCCCCC[C@H](N)C(=O)O; Cha = N[C@@H](CC1CCCCC1)C(=O)O; Decanoyl = CCCCCCCCCC(=O)*; Hexanoyl = CCCCCC(=O)*; Aib = CC(C)(N)C(=O)O; Butyryl = CCCC(=O)*; βAla = NCCC(=O)O
Recorded IC50 for the following compounds
Numbers only; they are read as nM.

Check out these entries, answers already filled in.
CCCCCCCCCC(=O)N1CCC[C@H]1C(=O)N[C@@H](CC1CCCCC1)C(=O)NC(C)(C)C(=O)NC(C)(C)C(=O)N[C@@H](CCCCCCCC)C(=O)N[C@@H](CC(C)C)C(=O)NC(C)(C)C(=O)N[C@@H](CC(C)C)C(=O)NCCC(=O)N[C@@H](C)CNCCO (Decanoyl-P[Cha][Aib][Aib][Gly(octyl)]L[Aib]L[βAla]-{NH((S)CH(Me)CH2NHC2H4OH)})	20
CCCCCCCC[C@H](NC(=O)C(C)(C)NC(=O)C(C)(C)NC(=O)[C@H](CC1CCCCC1)NC(=O)[C@@H]1CCCN1C(=O)CCC)C(=O)N[C@@H](CC(C)C)C(=O)NC(C)(C)C(=O)N[C@@H](CC(C)C)C(=O)NCCC(=O)N[C@@H](C)CN(C)CCO (Butyryl-P[Cha][Aib][Aib][Gly(octyl)]L[Aib]L[βAla]-{Alaψ(CH2NMeCH2CH2OH)})	8

What does the record list as IC50 for CCCCCCCC[C@H](NC(=O)C(C)(C)NC(=O)C(C)(C)NC(=O)[C@H](CC1CCCCC1)NC(=O)[C@@H]1CCCN1C(=O)CCCCC)C(=O)N[C@@H](CC(C)C)C(=O)NC(C)(C)C(=O)N[C@@H](CC(C)C)C(=O)NCCC(=O)N[C@@H](C)CNCCO (Hexanoyl-P[Cha][Aib][Aib][Gly(octyl)]L[Aib]L[βAla]-{NH((S)CH(Me)CH2NHC2H4OH)}) ?
18
